assay: Volume of distribution at steady state in mouse at 5 mg/kg, iv by ESI-LCMS/MS analysis; type: ADME, organism-based; conditions: in vivo, read-out: Vdss
endpoint_label: Vd (L/kg)

[[record]]
molecule = "CCOc1cc(-c2nncn2C)ccc1Nc1ncc2cc(C)nc(N3CC(C)(C)C3)c2n1"
test_result = 2.09


(A) CCOc1cc(-c2nncn2C)ccc1Nc1ncc2cc(C)nc(NCC(C)(C)C)c2n1 [BOS-172722]
(B) CCOc1cc(-c2nncn2C)ccc1Nc1ncc2cc(C)nc(N3CC4(CCOCC4)C3)c2n1
stdin: Of A and B , whose reported Vd is numerically smaller? Reply briefly: the label of your chosen item.
stdout: B
(B: 1.21 L/kg, A: 2.46 L/kg)
